Cited source: paper PMC9860126

target: HpNikR E56A (Helicobacter pylori G27, UniProt A1YSQ9 1-148, E56A); test: fluorescence anisotropy; apo (no Ni); FA: 5 nM DNA, 20 mM Tris pH 7.6, 100 mM NaCl, 3 mM MgSO4, temperature not stated (Ni loading 1.2 eq NiSO4 per monomer at RT). EMSA: 20 mM Tris pH 7.5, 100 mM KCl, 3 mM MgCl2, 0.1% IGEPAL, 5% glycerol, 0.1 mg/ml herring sperm DNA, RT; gel with 800 uM NiSO4 at 4 C; conditions: protein: recombinant; tags: none stated; chain copies: 4; label: fluorescein on internal thymine (T14 of strand 1); blunt
quantity.name: Kd (µM)
Entry rule: numbers only, all in µM.

The reported value for ureA-perf promoter 32 bp (dsDNA) DNA 1: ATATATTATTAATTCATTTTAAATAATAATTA DNA 2: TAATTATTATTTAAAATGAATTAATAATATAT in terms of Kd is 1.2

The reported value for ureA promoter 32 bp (FA) (dsDNA) DNA 1: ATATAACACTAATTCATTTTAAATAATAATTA DNA 2: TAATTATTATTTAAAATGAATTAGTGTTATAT in terms of Kd is 1.8
